Each recorded value in this set is attributed to paper PMC9866752.

target: human Frataxin (FXN) (Homo sapiens, UniProt Q16595); construct: D91-A210, N-terminal 6xHis-GST tag cut with thrombin; E. coli BL21; 15N-labelled; experiment: NMR 1H-15N SOFAST-HMQC titration, chemical shift perturbation, Hill fit; assay type: binding
Sequence (Q16595 91-210): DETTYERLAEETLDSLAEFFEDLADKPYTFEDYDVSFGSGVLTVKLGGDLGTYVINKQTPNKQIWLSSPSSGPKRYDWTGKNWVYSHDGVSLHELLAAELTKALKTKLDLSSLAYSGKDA
value-kind: EC50 (µM)
Express the result in µM but write the number alone.

Lookup: Could you tell me which EC50 is on file for C=CC1=C(C)c2cc3[nH]c(cc4nc(cc5[nH]c(cc1n2)c(C)c5CCC(=O)O)C(CCC(=O)O)=C4C)c(C)c3C=C [Protoporphyrin IX] ?
Found: 140
